- TARGET: glucan synthase (GS) prepared from Candida albicans MY1055 (Candida albicans)
- Sequence (O13428 1-1897): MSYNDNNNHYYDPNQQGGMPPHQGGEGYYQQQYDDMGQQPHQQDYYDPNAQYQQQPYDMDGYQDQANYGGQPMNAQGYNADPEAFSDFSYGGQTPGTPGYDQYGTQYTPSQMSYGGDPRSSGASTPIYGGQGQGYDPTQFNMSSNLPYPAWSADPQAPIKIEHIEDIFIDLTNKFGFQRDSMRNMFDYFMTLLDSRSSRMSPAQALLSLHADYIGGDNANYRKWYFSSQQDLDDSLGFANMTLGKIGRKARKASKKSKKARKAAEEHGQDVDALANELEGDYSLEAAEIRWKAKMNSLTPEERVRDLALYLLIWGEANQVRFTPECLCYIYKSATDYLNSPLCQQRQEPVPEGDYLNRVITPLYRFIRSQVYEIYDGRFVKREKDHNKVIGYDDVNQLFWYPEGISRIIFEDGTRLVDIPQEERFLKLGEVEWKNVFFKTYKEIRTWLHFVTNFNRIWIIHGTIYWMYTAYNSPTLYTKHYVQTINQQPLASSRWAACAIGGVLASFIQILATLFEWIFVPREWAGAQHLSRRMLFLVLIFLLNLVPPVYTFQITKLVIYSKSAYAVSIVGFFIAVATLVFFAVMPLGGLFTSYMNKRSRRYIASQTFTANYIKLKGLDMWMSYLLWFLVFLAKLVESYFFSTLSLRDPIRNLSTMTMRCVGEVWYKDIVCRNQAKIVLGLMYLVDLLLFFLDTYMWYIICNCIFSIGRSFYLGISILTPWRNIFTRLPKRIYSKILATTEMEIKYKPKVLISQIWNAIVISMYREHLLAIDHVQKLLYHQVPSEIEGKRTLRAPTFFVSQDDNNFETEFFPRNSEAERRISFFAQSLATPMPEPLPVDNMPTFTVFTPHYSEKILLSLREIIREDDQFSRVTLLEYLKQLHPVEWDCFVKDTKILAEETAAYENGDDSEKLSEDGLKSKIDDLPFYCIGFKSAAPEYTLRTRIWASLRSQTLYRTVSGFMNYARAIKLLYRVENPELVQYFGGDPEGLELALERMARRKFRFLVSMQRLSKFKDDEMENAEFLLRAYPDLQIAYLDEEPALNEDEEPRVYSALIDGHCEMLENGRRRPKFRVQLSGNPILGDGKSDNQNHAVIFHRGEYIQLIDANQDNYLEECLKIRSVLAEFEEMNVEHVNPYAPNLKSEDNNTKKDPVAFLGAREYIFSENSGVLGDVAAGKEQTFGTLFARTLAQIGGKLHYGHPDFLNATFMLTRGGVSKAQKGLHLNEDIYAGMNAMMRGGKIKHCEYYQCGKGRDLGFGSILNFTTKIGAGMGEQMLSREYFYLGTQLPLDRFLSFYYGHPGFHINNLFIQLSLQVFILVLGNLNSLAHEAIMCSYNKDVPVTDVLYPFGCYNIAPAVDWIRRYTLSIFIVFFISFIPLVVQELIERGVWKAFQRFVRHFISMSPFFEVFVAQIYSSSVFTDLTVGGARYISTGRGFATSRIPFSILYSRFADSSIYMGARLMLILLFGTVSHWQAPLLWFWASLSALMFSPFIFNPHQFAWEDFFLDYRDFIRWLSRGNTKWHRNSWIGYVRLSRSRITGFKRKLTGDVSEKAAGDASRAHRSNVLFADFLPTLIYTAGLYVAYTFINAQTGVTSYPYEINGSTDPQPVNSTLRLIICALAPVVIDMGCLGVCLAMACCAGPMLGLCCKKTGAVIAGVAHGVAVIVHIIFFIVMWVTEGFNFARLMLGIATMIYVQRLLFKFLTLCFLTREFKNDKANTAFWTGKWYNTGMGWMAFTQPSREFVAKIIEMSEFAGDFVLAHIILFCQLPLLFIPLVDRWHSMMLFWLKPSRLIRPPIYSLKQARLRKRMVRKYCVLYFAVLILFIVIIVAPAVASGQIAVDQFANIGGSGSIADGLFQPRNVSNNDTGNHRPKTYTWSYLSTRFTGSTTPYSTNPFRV
- ASSAY REMARKS: Glucan synthase inhibition (polymerization assay, 96-well)
- Type: biochemical
- ASSAY CONTEXT: GS from C. albicans MY1055; 60 min incubation at 22° C.; read-out: Candida Albicans GS IC50 (converted)
READOUT LABEL: IC50 (nM)

A: CC(C)[C@@H](C)[C@@]1(C)CC[C@]2(C)[C@H]3CC[C@@H]4[C@@]5(COC[C@@]4(C)[C@@H](OC[C@H](N)C(C)(C)C)[C@H](n4ncnc4C(N)=O)C5)C3=CC[C@@]2(C)[C@@H]1C(=O)O [Example 97]
B: CC(C)[C@@H](C)[C@@]1(C)CC[C@]2(C)[C@H]3CC[C@@H]4[C@@]5(COC[C@@]4(C)[C@@H](OC[C@](C)(N)C(C)(C)C)[C@H](n4ncnc4-c4ccnc(N)c4)C5)C3=CC[C@@]2(C)[C@@H]1C(=O)O [Example 214]
Hi! Which is lower in terms of IC50, the first one A or the second one B ? // caller expects the label of the chosen entry
B
(B: 1.34 nM, A: 11.7 nM)

* * *

- TARGET: glucan synthase (GS) prepared from Candida albicans MY1055 (Candida albicans)
- ASSAY REMARKS: Glucan synthase inhibition (polymerization assay, 96-well)
- Assay type: biochemical
- ASSAY CONTEXT: GS from C. albicans MY1055; 60 min incubation at 22° C.; read-out: Candida Albicans GS IC50 (converted)
READOUT LABEL: IC50 (µM)

Below are worked cases with known answers.
Test system glucan synthase (GS) prepared from Candida albicans MY1055 (Candida albicans); read-out IC50; what value for CC(C)[C@@H](C)[C@@]1(C)CC[C@]2(C)[C@H]3CC[C@@H]4[C@@]5(COC[C@@]4(C)[C@@H](OC[C@](C)(N)C(C)C)[C@H](n4nc(Br)nc4[N+](=O)[O-])C5)C3=CC[C@@]2(C)[C@@H]1C(=O)O (single isomer, unassigned) [Example 29B] ?
0.0813

Now try CC(C)[C@@H](C)[C@@]1(C)CC[C@]2(C)[C@H]3CC[C@@H]4[C@@]5(COC[C@@]4(C)[C@@H](OC[C@](C)(N)C(C)C)[C@H](n4ncnc4-c4ccoc4)C5)C3=CC[C@@]2(C)[C@@H]1C(=O)O .
0.00851

Cool, now CC(C)[C@@H](C)[C@@]1(C)CC[C@]2(C)[C@H]3CC[C@@H]4[C@@]5(COC[C@@]4(C)[C@@H](OC[C@](C)(N)C(C)C)[C@H](n4nc(Cl)nc4Cl)C5)C3=CC[C@@]2(C)[C@@H]1C(=O)O
0.0466

CC(C)[C@@H](C)[C@@]1(C)CC[C@]2(C)[C@H]3CC[C@@H]4[C@@]5(COC[C@@]4(C)[C@@H](OC[C@](C)(N)C(C)(C)C)[C@H](n4ncnc4-c4ccc(CN)cc4)C5)C3=CC[C@@]2(C)[C@@H]1C(=O)O , same question.
0.00106

Follow-up item: CNC(=O)c1ncnn1[C@@H]1C[C@@]23COC[C@](C)([C@@H]2CC[C@H]2C3=CC[C@@]3(C)[C@H](C(=O)O)[C@@](C)([C@H](C)C(C)C)CC[C@]23C)[C@H]1OCC1(N)CCOCC1
0.00986

P: CNC1(CO[C@H]2[C@H](n3ncnc3Cl)C[C@@]34COC[C@]2(C)[C@@H]3CC[C@H]2C4=CC[C@@]3(C)[C@H](C(=O)O)[C@@](C)([C@H](C)C(C)C)CC[C@]23C)CCOCC1
Q: CCOC(=O)c1nccn1[C@@H]1C[C@@]23COC[C@](C)([C@@H]2CC[C@H]2C3=CC[C@@]3(C)[C@H](C(=O)O)[C@@](C)([C@H](C)C(C)C)CC[C@]23C)[C@H]1OC[C@](C)(N)C(C)C
Of P and Q , whose reported IC50 is the larger number? Pick one; state its label.
Q

P: CCCNS(=O)(=O)c1ncnn1[C@@H]1C[C@@]23COC[C@](C)([C@@H]2CC[C@H]2C3=CC[C@@]3(C)[C@H](C(=O)O)[C@@](C)([C@H](C)C(C)C)CC[C@]23C)[C@H]1OCC(N)(CC)CC
Q: CC(C)[C@@H](C)[C@@]1(C)CC[C@]2(C)[C@H]3CC[C@@H]4[C@@]5(COC[C@@]4(C)[C@@H](OC[C@](C)(N)C(C)C)[C@H](n4ncnc4-c4cncs4)C5)C3=CC[C@@]2(C)[C@@H]1C(=O)O
R: CC(C)[C@@H](C)[C@@]1(C)CC[C@]2(C)[C@H]3CC[C@@H]4[C@@]5(COC[C@@]4(C)[C@@H](OC[C@](C)(N)C(C)C)[C@H](n4ncnc4C(=O)N4CCOCC4)C5)C3=CC[C@@]2(C)[C@@H]1C(=O)O
Arrange these 3 compounds in increasing order of IC50. // format: requested-order list of labels
Q, P, R
(Q: 0.00415 µM, P: 0.0342 µM, R: 0.0705 µM)

* * *

- TARGET: glucan synthase (GS) prepared from Candida albicans MY1055 (Candida albicans)
- ASSAY REMARKS: Glucan synthase inhibition (polymerization assay, 96-well)
- Assay type: biochemical
- ASSAY CONTEXT: GS from C. albicans MY1055; 60 min incubation at 22° C.; read-out: Candida Albicans GS IC50 (converted)
READOUT LABEL: IC50 (nM)

Example entries and their recorded answers appear below.
What value of IC50 has been recorded for this entry: CNC1(CO[C@H]2[C@H](n3ncnc3C(N)=O)C[C@@]34COC[C@]2(C)[C@@H]3CC[C@H]2C4=CC[C@@]3(C)[C@H](C(=O)O)[C@@](C)([C@H](C)C(C)C)CC[C@]23C)CCCCC1
19.8

Now consider C=C(C)c1ncnn1[C@@H]1C[C@@]23COC[C@](C)([C@@H]2CC[C@H]2C3=CC[C@@]3(C)[C@H](C(=O)O)[C@@](C)([C@H](C)C(C)C)CC[C@]23C)[C@H]1OC[C@](C)(N)C(C)C .
4.42

A: COC(=O)c1cnnn1[C@@H]1C[C@@]23COC[C@](C)([C@@H]2CC[C@H]2C3=CC[C@@]3(C)[C@H](C(=O)O)[C@@](C)([C@H](C)C(C)C)CC[C@]23C)[C@H]1OC[C@](C)(N)C(C)C (single isomer, unassigned) [Example 289B]
B: CN[C@](C)(CO[C@H]1[C@H](n2cncn2)C[C@@]23COC[C@]1(C)[C@@H]2CC[C@H]1C3=CC[C@@]2(C)[C@H](C(=O)O)[C@@](C)([C@H](C)C(C)C)CC[C@]12C)C(C)C
Which value of IC50 is numerically greater: that of A or that of B ? In your reply, give the label of the chosen option.
A

* * *

- TARGET: UniProtKB O13428
- ASSAY REMARKS: Glucan synthase inhibition (polymerization assay, 96-well)
- Assay type: biochemical
- ASSAY CONTEXT: GS from C. albicans MY1055; 60 min incubation at 22° C.; read-out: Candida Albicans GS IC50 (converted)
READOUT LABEL: IC50 (nM)

# query: IC50 | item CN[C@@](C)(CO[C@H]1[C@H](n2ncnc2C(=O)NC2CC2)C[C@@]23COC[C@]1(C)[C@@H]2CC[C@H]1C3=CC[C@@]2(C)[C@H](C(=O)O)[C@@](C)([C@H](C)C(C)C)CC[C@]12C)C(C)C [Example 64] | system: UniProtKB O13428
13.6

Input CC(C)[C@@H](C)[C@@]1(C)CC[C@]2(C)[C@H]3CC[C@@H]4[C@@]5(COC[C@@]4(C)[C@@H](OC[C@](C)(C(C)C)N(C)C)[C@H](n4cnc(N)n4)C5)C3=CC[C@@]2(C)[C@@H]1C(=O)O [Example 27]
16.1

Please do the same for CC(C)[C@@H](C)[C@@]1(C)CC[C@]2(C)[C@H]3CC[C@@H]4[C@@]5(COC[C@@]4(C)[C@@H](OC[C@](C)(N)C(C)C)[C@H](n4nc(N)nc4-c4ccccc4)C5)C3=CC[C@@]2(C)[C@@H]1C(=O)O [Example 36] as well.
13.7

Then CC(C)[C@@H](C)[C@@]1(C)CC[C@]2(C)[C@H]3CC[C@@H]4[C@@]5(COC[C@@]4(C)[C@@H](OC[C@](C)(N)C(C)C)[C@H](n4ncnc4N4CCOCC4)C5)C3=CC[C@@]2(C)[C@@H]1C(=O)O [Example 148] ?
18

I: CN[C@@](C)(CO[C@H]1[C@H](n2cnc(N)n2)C[C@@]23COC[C@]1(C)[C@@H]2CC[C@H]1C3=CC[C@@]2(C)[C@H](C(=O)O)[C@@](C)([C@H](C)C(C)C)CC[C@]12C)C(C)C [Example 5]
II: CNC(=O)c1ncnn1[C@@H]1C[C@@]23COC[C@](C)([C@@H]2CC[C@H]2C3=CC[C@@]3(C)[C@H](C(=O)O)[C@@](C)([C@H](C)C(C)C)CC[C@]23C)[C@H]1OCC1(NC)CCSCC1 [Example 116]
III: CN[C@@](C)(CO[C@H]1[C@H](n2ncnc2-c2ccccc2)C[C@@]23COC[C@]1(C)[C@@H]2CC[C@H]1C3=CC[C@@]2(C)[C@H](C(=O)O)[C@@](C)([C@H](C)C(C)C)CC[C@]12C)C(C)C [Example 150]
IV: CC(C)[C@@H](C)[C@@]1(C)CC[C@]2(C)[C@H]3CC[C@@H]4[C@@]5(COC[C@@]4(C)[C@@H](OC[C@](C)(N)C(C)C)[C@H](n4nccc4[N+](=O)[O-])C5)C3=CC[C@@]2(C)[C@@H]1C(=O)O (single isomer, unassigned) [Example 293B]
Put the entries in order of IC50, starting with the largest number. Arrange the labels as the request states and list them.
II, I, IV, III
(II: 20.3 nM, I: 12 nM, IV: 4.39 nM, III: 2.74 nM)
